Every entry's value here was drawn from patent US5736546A.

Counter-ions that a name gives are not always drawn.
Here's a batch of molecules along with measured IC50 for μ receptors (Rattus norvegicus).

Batch lookup, IC50 per entry.
1. COc1ccc(CCN2CCN(CCCc3ccccc3)CC2)cc1OC.Cl.Cl [compound No. 1-1, dihydrochloride]
2. COc1ccc(CCN2CCN(CCc3ccccc3)CC2)cc1OC [compound No. 1-2, dihydrochloride]
3. COc1ccc(CCN2CCN(Cc3ccccc3)CC2)cc1OC [compound No. 1-3, dihydrochloride]

1. > 10 µM
2. > 10 µM
3. > 10 µM

====

Biological target: sigma receptors (Cavia porcellus, UniProt Q60492)
Construct: A brain of a Hartley guinea pig (weight: 300-400 g) was excised; from tissue; host or cells: Hartley guinea pig brain, membrane preparation
Sequence (Q60492 whole entry): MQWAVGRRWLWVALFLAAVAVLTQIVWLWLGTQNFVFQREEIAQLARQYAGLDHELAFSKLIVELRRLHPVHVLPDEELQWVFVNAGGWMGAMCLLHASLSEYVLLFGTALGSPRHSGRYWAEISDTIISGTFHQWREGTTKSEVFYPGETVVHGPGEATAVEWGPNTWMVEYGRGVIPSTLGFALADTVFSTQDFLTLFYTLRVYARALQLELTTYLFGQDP
Assay: biochemical
Set-up: species or system Hartley guinea pig
Conditions: [3H](+)-SKF-10047 5 nM; guinea pig brain membrane; 25° C., 30 minutes; read-out: IC50 (inhibition of specific binding of [3H](+)-SKF-10047)
Counter-ions that a name gives are not always drawn.
PARAMETER: pIC50
Numbers only, as −log10 of the molar value.

# return pIC50 of COc1ccc(CCN2CCN(Cc3ccccc3)CC2)cc1OC [compound No. 1-3, dihydrochloride] (system: sigma receptors (Cavia porcellus, UniProt Q60492))
8.37
